# system: Neuromedin-K receptor (Homo sapiens)
# Sequence (P29371 whole entry): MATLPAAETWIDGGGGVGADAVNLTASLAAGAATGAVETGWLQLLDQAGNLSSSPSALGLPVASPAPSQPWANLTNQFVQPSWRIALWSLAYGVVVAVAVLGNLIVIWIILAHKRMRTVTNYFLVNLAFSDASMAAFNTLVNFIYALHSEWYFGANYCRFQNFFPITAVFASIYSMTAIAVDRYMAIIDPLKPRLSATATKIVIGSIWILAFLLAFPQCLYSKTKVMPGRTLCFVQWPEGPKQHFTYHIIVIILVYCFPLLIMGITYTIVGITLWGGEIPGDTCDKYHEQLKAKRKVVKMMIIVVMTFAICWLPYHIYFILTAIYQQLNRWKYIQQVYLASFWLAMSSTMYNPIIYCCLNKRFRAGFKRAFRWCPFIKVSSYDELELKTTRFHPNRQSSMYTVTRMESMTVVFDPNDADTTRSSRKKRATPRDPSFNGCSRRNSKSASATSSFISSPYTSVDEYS
pIC50: −log10 of the molar value.
measurement-kind: pIC50

compound="COC1Cc2ccccc2C2(CCN(Cc3ccccc3)CC2)O1 (configuration not stated)" measurement_kind=pIC50 val="< 5.00"
compound="COC1Cc2ccccc2C2(CCN(CCCc3ccccc3)CC2)O1 (configuration not stated)" measurement_kind=pIC50 val="< 5.00"

====

# system: D(1A) dopamine receptor (Mus musculus, UniProt Q61616)
# Sequence (Q61616 whole entry): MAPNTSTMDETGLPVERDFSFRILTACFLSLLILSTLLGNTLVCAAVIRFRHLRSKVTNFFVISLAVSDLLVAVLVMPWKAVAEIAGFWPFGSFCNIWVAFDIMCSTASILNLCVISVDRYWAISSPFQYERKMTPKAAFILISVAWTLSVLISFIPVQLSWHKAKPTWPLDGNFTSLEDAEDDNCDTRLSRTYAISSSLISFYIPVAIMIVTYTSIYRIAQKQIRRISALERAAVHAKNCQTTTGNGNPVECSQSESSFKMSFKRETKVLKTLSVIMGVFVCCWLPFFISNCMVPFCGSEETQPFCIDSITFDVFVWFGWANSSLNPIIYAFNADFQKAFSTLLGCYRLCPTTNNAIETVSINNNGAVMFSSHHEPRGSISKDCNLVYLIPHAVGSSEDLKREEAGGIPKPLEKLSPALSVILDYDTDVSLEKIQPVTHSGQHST
# assay-info: Inhibition of SCH 23390 binding to Dopamine receptor D1
compounds and their reported IC50
measurement-kind: IC50

compound="COC1OC2(CCN(Cc3ccccc3)CC2)c2ccccc21 (stereo not drawn)" val="> 10 µM"
compound="COC1Cc2ccccc2C2(CCN(CCCc3ccccc3)CC2)O1 (stereo not drawn)" val="> 10 µM"
compound="COC1Cc2ccccc2C2(CCN(Cc3ccccc3)CC2)O1 (stereo not drawn)" val="> 10 µM"

====

# system: UniProt P46098
# Sequence (P46098 whole entry): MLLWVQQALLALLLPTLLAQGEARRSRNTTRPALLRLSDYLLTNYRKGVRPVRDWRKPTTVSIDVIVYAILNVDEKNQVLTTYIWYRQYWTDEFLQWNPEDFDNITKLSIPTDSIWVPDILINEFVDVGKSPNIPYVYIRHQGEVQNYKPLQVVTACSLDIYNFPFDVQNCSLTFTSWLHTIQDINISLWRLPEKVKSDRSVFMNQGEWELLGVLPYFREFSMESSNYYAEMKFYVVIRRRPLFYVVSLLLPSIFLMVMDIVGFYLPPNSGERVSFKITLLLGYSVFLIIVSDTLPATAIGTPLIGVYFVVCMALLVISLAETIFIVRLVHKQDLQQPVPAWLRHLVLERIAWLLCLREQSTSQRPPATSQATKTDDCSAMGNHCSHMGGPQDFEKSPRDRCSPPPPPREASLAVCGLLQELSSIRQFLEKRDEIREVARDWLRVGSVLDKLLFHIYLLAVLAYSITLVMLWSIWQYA
pIC50: −log10 of the molar value.
measurement-kind: pIC50

molecule="COC1OC2(CCN(Cc3ccccc3)CC2)c2ccccc21 (configuration not stated)" measurement_kind=pIC50 val="< 5.00"
molecule="COC1Cc2ccccc2C2(CCN(Cc3ccccc3)CC2)O1 (configuration not stated)" measurement_kind=pIC50 val="< 5.00"

====

compounds and their reported IC50
# assay-info: Inhibition of prazosin binding to noradrenaline alpha-1 receptor
measurement-kind: IC50 (µM)

compound="COC1OC2(CCN(Cc3ccccc3)CC2)c2ccccc21 (configuration not stated)" value_qualifier=> val=10
compound="COC1Cc2ccccc2C2(CCN(CCCc3ccccc3)CC2)O1 (configuration not stated)" value_qualifier== val=1.4

====

compounds and their reported IC50
# system: 5-hydroxytryptamine receptor 2A (Homo sapiens, UniProt P28223)
# Sequence (P28223 whole entry): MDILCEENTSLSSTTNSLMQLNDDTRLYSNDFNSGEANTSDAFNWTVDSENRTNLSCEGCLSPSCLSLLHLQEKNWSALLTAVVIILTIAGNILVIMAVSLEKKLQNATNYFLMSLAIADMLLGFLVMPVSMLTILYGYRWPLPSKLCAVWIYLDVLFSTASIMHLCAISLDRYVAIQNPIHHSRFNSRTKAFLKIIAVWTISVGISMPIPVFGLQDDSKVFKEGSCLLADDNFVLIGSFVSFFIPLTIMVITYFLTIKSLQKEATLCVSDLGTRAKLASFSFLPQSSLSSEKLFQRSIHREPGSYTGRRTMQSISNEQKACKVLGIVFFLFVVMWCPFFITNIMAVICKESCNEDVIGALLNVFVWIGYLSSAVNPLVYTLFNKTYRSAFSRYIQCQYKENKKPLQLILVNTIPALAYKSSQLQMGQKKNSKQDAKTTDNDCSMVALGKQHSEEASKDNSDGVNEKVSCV
measurement-kind: IC50 (µM)

compound="COC1OC2(CCN(Cc3ccccc3)CC2)c2ccccc21 (configuration not stated)" value_qualifier=> val=10
compound="COC1Cc2ccccc2C2(CCN(Cc3ccccc3)CC2)O1 (configuration not stated)" value_qualifier== val=6.6

====

# assay-info: The compound was tested for inhibition of serotonin reuptake
# Type: functional
pIC50: −log10 of the molar value.
compounds and their reported pIC50
measurement-kind: pIC50

compound="COC1OC2(CCN(Cc3ccccc3)CC2)c2ccccc21 (stereo not drawn)" val=5.10
compound="COC1Cc2ccccc2C2(CCN(Cc3ccccc3)CC2)O1 (stereo not drawn)" val=5.22
compound="COC1Cc2ccccc2C2(CCN(CCCc3ccccc3)CC2)O1 (stereo not drawn)" val=6.15

====

compounds and their reported IC50
# system: Histamine H1 receptor (Homo sapiens)
# Sequence (P35367 whole entry): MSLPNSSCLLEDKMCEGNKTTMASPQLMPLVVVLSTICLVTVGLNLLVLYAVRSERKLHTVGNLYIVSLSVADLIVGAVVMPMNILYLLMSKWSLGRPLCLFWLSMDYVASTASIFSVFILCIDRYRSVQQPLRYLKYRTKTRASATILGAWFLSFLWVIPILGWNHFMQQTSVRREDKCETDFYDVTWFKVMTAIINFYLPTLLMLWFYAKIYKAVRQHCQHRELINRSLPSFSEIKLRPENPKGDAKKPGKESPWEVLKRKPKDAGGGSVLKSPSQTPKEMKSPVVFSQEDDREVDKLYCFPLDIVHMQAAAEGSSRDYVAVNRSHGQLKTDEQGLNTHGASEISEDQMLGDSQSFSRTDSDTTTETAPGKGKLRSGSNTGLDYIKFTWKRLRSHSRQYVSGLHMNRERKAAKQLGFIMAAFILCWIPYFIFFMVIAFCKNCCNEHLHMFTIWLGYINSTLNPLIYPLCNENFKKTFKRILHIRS
measurement-kind: IC50

compound="COC1OC2(CCN(Cc3ccccc3)CC2)c2ccccc21 (configuration not stated)" val="> 10 µM"
compound="COC1Cc2ccccc2C2(CCN(Cc3ccccc3)CC2)O1 (configuration not stated)" val="> 10 µM"

====

compounds and their reported Selectivity ratio
# system: Sigma non-opioid intracellular receptor 1 (Homo sapiens) (UniProt Q99720)
# Sequence (Q99720 whole entry): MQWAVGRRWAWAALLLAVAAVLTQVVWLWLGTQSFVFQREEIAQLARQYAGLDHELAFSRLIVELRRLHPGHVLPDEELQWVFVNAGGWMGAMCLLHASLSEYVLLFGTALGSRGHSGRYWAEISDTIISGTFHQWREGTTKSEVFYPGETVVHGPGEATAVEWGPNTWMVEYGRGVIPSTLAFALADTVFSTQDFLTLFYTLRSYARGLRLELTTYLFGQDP
# assay-info: Selectivity ratio (Sigma1/Sigma2)
measurement-kind: Selectivity ratio

compound="COC1Cc2ccccc2C2(CCN(C/C=C/c3ccccc3)CC2)O1 (centres undefined)" system="Sigma non-opioid intracellular receptor 1 (Homo sapiens) (UniProt Q99720)" measurement_kind="Selectivity ratio" val=301
compound="COC1Cc2ccccc2C2(CCN(CCCCc3ccccc3)CC2)O1 (centres undefined)" system="Sigma non-opioid intracellular receptor 1 (Homo sapiens) (UniProt Q99720)" measurement_kind="Selectivity ratio" val=30
compound="OC1Cc2ccccc2C2(CCN(CCc3ccccc3)CC2)O1 (centres undefined)" system="Sigma non-opioid intracellular receptor 1 (Homo sapiens) (UniProt Q99720)" measurement_kind="Selectivity ratio" val=2
compound="OC1Cc2ccccc2C2(CCN(Cc3ccccc3)CC2)O1 (centres undefined)" system="Sigma non-opioid intracellular receptor 1 (Homo sapiens) (UniProt Q99720)" measurement_kind="Selectivity ratio" val=236

====

molecules and their reported IC50
# system: UniProt Q64264
# Sequence (Q64264 whole entry): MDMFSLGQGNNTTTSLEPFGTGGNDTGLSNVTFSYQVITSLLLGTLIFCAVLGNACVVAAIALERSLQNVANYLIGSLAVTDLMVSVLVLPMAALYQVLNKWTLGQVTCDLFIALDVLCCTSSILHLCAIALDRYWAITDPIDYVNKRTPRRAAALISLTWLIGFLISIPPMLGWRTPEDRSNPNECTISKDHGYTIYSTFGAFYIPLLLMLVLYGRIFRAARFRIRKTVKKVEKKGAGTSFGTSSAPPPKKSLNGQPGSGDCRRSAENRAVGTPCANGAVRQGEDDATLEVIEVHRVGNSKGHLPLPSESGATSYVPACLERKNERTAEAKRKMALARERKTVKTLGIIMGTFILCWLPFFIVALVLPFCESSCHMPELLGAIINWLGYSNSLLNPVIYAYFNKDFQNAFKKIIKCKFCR
measurement-kind: IC50

molecule="COC1OC2(CCN(Cc3ccccc3)CC2)c2ccccc21 (stereo not drawn)" val="> 1000 nM"
molecule="COC1Cc2ccccc2C2(CCN(Cc3ccccc3)CC2)O1 (stereo not drawn)" val="> 1000 nM"
molecule="COC1Cc2ccccc2C2(CCN(CCCc3ccccc3)CC2)O1 (stereo not drawn)" val="> 1000 nM"

====

pIC50: −log10 of the molar value.
Recorded below: pIC50, system UniProt P25103.
Sequence (P25103 whole entry): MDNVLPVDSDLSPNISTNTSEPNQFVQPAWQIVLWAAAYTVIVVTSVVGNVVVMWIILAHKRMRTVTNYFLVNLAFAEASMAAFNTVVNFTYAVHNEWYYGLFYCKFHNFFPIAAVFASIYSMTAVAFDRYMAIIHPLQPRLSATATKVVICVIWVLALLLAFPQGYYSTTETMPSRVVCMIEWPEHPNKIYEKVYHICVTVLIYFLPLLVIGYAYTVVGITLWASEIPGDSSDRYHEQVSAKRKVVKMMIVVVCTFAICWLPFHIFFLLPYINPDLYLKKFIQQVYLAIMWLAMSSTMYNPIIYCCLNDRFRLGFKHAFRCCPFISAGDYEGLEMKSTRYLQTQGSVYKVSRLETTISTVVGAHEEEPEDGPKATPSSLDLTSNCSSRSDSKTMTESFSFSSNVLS
measurement-kind: pIC50

compound="COC1Cc2ccccc2C2(CCN(CCCc3ccccc3)CC2)O1 (configuration not stated)" measurement_kind=pIC50 val="< 5.00"
compound="COC1Cc2ccccc2C2(CCN(Cc3ccccc3)CC2)O1 (configuration not stated)" measurement_kind=pIC50 val="< 5.00"
